Value source: ChEMBL document CHEMBL1132142

Test system: MT4
experimentDescription: The compound was evaluated for inhibition of cytopathic effect of HIV-2ROD in MT-4 cells
Format: functional, cell-based, Homo sapiens
conditionNotes: mt4
So I've got a bunch of compounds here, and I need their pEC50 values.
// pEC50 is dimensionless: -log10 of concentration (M)

[Q] So what does the record say about pEC50 for CC(C)CCCC(C)[C@H]1CC[C@H]2[C@@H]3CCC4C[C@@H](CCC=C(c5cc(Cl)c(OCc6cccc([N+](=O)[O-])c6)c(C(=O)[O-])c5)c5cc(Cl)c(OCc6cccc([N+](=O)[O-])c6)c(C(=O)[O-])c5)CC[C@]4(C)[C@H]3CC[C@]12C.[Na+].[Na+] (stereo partly drawn) ?
[A] 4.54

[Q] CC(C)CCCC(C)[C@H]1CC[C@H]2[C@@H]3CCC4C[C@@H](CCC=C(c5cc(Cl)c(OCc6ccc(C(=O)[O-])cc6)c(C(=O)[O-])c5)c5cc(Cl)c(OCc6ccc(C(=O)[O-])cc6)c(C(=O)[O-])c5)CC[C@]4(C)[C@H]3CC[C@]12C.[Na+].[Na+].[Na+].[Na+] (stereo partly drawn) , same question.
[A] 4.66

[Q] Thanks! And CC(C)CCCC(C)[C@H]1CC[C@H]2[C@@H]3CCC4C[C@@H](CCC=C(c5cc(Cl)c(OCc6ccc([N+](=O)[O-])cc6)c(C(=O)[O-])c5)c5cc(Cl)c(OCc6ccc([N+](=O)[O-])cc6)c(C(=O)[O-])c5)CC[C@]4(C)[C@H]3CC[C@]12C.[Na+].[Na+] (stereo partly drawn) ?
[A] 4.48

* * *

Answer each item with its documented EC50.
System: MT4
experimentDescription: The compound was evaluated for inhibition of cytopathic effect of HIV-2ROD in MT-4 cells
Type: functional, cell-based, Homo sapiens
conditionNotes: mt4

[Q] Query: EC50; subject: CC(C)CCCC(C)[C@H]1CC[C@H]2[C@@H]3CCC4C[C@@H](CCC=C(c5cc(Cl)c(OCc6cccc([N+](=O)[O-])c6)c(C(=O)O)c5)c5cc(Cl)c(OCc6cccc([N+](=O)[O-])c6)c(C(=O)O)c5)CC[C@]4(C)[C@H]3CC[C@]12C (some centres not stated)
[A] > 125 µM

[Q] Another compound to look at: CC(C)CCCC(C)[C@H]1CC[C@H]2[C@@H]3CCC4C[C@@H](CCC=C(c5cc(Cl)c(OCc6cccc(C(=O)[O-])c6)c(C(=O)[O-])c5)c5cc(Cl)c(OCc6cccc(C(=O)[O-])c6)c(C(=O)[O-])c5)CC[C@]4(C)[C@H]3CC[C@]12C.[Na+].[Na+].[Na+].[Na+] (some centres not stated)
[A] > 35 µM

* * *

Test system: MT4
experimentDescription: The compound was evaluated for inhibition of cytopathic effect of HIV-1 IIIB in MT-4 cells
Assay type: functional, cell-based, Homo sapiens
conditionNotes: mt4
experimentalEndpoint: EC50 (µM)
Report only the number, with the unit µM understood.

[Q] Please tell me: EC50 of CC(C)CCCC(C)[C@H]1CC[C@H]2[C@@H]3CCC4C[C@@H](CCC=C(c5cc(Cl)c(OCc6ccc([N+](=O)[O-])cc6)c(C(=O)[O-])c5)c5cc(Cl)c(OCc6ccc([N+](=O)[O-])cc6)c(C(=O)[O-])c5)CC[C@]4(C)[C@H]3CC[C@]12C.[Na+].[Na+] (stereo partly specified) , system MT4?
[A] 80
